Could you please report measured TGI for the items listed next?
Test system: IGROV1 ovarian
Assay: NCI tumour cell line growth inhibition, 48 h

- molecule: "C/C(=C\\COP(=O)(O)OP(=O)(O)O)CC/C=C(\\C)CNc1c(F)c(F)c(F)c(F)c1F"
  TGI: "> 100 µM"
- molecule: "CCOC(=O)c1c(NS(=O)(=O)c2ccccc2)sc2c1CCCC2"
  TGI: "> 100 µM"
- molecule: "CC/C(CC(=O)CCC(=O)Nc1ccc(C)c(C)c1)=N\\NC(=O)c1cc2ccccc2cc1O"
  TGI: "57.5 µM"

Working through the 4 molecules below one at a time, give TGI for each.
1. CC/C(=C/c1ccc(OC)cc1)[N+](=O)[O-]
2. CN1N=C(c2ccncc2)OC1c1ccc(C(F)(F)F)cc1 (stereo not drawn)
3. O=C1c2ccccc2C(=O)c2c1ccc1c3ccccc3n(-c3ccccc3)c21
4. CCN(CC)c1ccc(N=Nc2ccc(-c3nc4cccnc4s3)cc2)cc1

8.16 µM
> 100 µM
41 µM
> 100 µM

----------
Tested on: UACC-257 melanoma
Experiment: NCI tumour cell line growth inhibition, 48 h
Could you please report measured TGI for the items listed next?

- compound: "c1ccc(-c2cc(-c3ccccc3)nc(-c3ccncc3)c2)cc1"
  system under test: "UACC-257 melanoma"
  experimental value: "> 100 µM"
- compound: "Clc1ccc(Cc2nc3cc(Cl)c(Cl)cc3n2CC2CCCN3CCCCC23)cc1 (stereo not given)"
  system under test: "UACC-257 melanoma"
  experimental value: "13 µM"
- compound: "N#Cc1c(N)oc2cc3c(C#N)c(N)oc3cc12"
  system under test: "UACC-257 melanoma"
  experimental value: "> 100 µM"
- compound: "COc1cc(O)c(C(=O)C2Cc3ccccc32)c(OC)c1 (stereo not given)"
  system under test: "UACC-257 melanoma"
  experimental value: "> 100 µM"

# get_value(readout='TGI', item= CCOC(=O)C(Oc1ccc(OC)c2c1C(=O)CCC2)c1ccccc1 (stereo not given) )
> 100 µM

----------
Test system: IGROV1 ovarian
Assay: NCI tumour cell line growth inhibition, 48 h
Could you please report measured TGI for the items listed next?

Some solved cases for reference:
- compound: "COc1ccc(/C=C(\\C#N)c2ccccn2)cc1OC"
  TGI: "> 100 µM"
- compound: "O=[N+]([O-])C(/C=C(\\Cl)[N+](=O)[O-])=C(N1CCOCC1)N1CCOCC1"
  TGI: "> 100 µM"
- compound: "O=C(O)CCCCCNCc1cc2cc3c(cc2c2cc(OCc4ccccc4)ccc12)OCO3"
  TGI: "10.1 µM"
- compound: "COc1cc2c(cc1C)NC(=O)/C2=C/c1c(Cl)[nH]c2ccccc12"
  TGI: "16.8 µM"
- compound: "COC1=CC(=O)C2(C=C1OC)OC[C@H]1Oc3c(ccc4c3C=CC(C)(C)O4)C(=O)[C@H]12 (stereo partly specified)"
  TGI: "> 100 µM"
- compound: "CCOC(=O)c1cccc(N=NNc2cccc(C(=O)OCC)c2)c1"
  TGI: "> 100 µM"

Working through the 5 compounds below one at a time, give TGI for each.
1. COc1cccc(/C=C\C(=O)c2ccccc2)c1
2. CC1CCc2c(C(=O)Nc3ncc(Cc4cccc([N+](=O)[O-])c4)s3)csc2C1 (stereo unspecified)
3. O=C(Cn1c(=O)oc2ccccc21)N(c1ccccc1)c1ccccc1
4. c1c2c(cc3c1OCO3)-c1ncc3cc4c(cc3c1C2)OCO4
5. COc1ccc2nc(-c3ccc(N)cc3)sc2c1

21.2 µM
> 100 µM
> 100 µM
> 100 µM
> 100 µM

Working through the 5 compounds below one at a time, give TGI for each.
1. O=C1c2ccccc2CC12Cc1ccc3c(c1C2=O)CCCC3 (stereo unspecified)
2. O=C(CC1(O)C(=O)Nc2ccccc21)c1cccc(O)c1 (stereo unspecified)
3. N#CC1=C(N)OC2=C(CCCc3ccc([N+](=O)[O-])cc32)C1c1ccc(Cl)cc1 (stereo unspecified)
4. CCOC(=O)/C(C(=O)c1ccc[nH]1)=C1/CCCN1C
5. O=C(O)COc1c(Cl)cc(Cl)c(C(c2c(Cl)cc(Cl)c(OCC(=O)O)c2Cl)C(Cl)(Cl)Cl)c1Cl

1: > 100 µM; 2: > 100 µM; 3: > 100 µM; 4: > 100 µM; 5: > 100 µM
